tested on: RAW264.7; assay: Antiinflammatory activity in mouse RAW264.7 cells assessed as residual LPS-induced iNOS protein level at 10 uM by Western blotting analysis
The following molecules are listed with their measured residual iNOS protein level at 10 µM values.
measurement-type: residual iNOS protein level at 10 µM (%)

molecule: CC(=O)OC[C@]12CC[C@H]3[C@@H](CCC4=CC(=O)C=C[C@@]43C)[C@@H]1CC[C@@H]2[C@H](C)[C@H]1C[C@H](C)[C@H](C)C(=O)O1 [PARAMINABEOLIDE B]
target-under-test: RAW264.7
value-units: %
number: 7.3
//
molecule: CC(=O)OC[C@]12CC[C@H]3[C@@H](CCC4=CC(=O)C=C[C@@]43C)[C@@H]1CC[C@@H]2[C@H](C)[C@H]1CC(C)=C(C)C(=O)O1 [MINABEOLIDE 2]
target-under-test: RAW264.7
value-units: %
number: 45.7
//
molecule: C[C@H]([C@H](O)[C@@H]1OC(=O)[C@H](C)[C@@H]1C)[C@H]1CC[C@H]2[C@@H]3CCC4=CC(=O)C=C[C@]4(C)[C@H]3CC[C@]12C [PARAMINABEOLIDE D]
target-under-test: RAW264.7
value-units: %
number: 43.3
//
molecule: C[C@@H]([C@H]1CC[C@H]2[C@@H]3CCC4=CC(=O)C=C[C@]4(C)[C@H]3CC[C@]12C)[C@H]1CC[C@H](C)C(=O)O1 [MINABEOLIDE 4]
target-under-test: RAW264.7
value-units: %
number: 23.2
//
molecule: CC1=C(C)C(=O)O[C@@H]([C@@H](C)[C@H]2CC[C@H]3[C@@H]4CCC5=CC(=O)C=C[C@]5(C)[C@H]4CC[C@]23C=O)C1 [PARAMINABEOLIDE A]
target-under-test: RAW264.7
value-units: %
number: 11

Origin of measurements: ChEMBL document CHEMBL1782008
